Hey, just so you know, these numbers are from paper PMC10397247.

- Target Under Test: T1, O9-bA
- T1 chain: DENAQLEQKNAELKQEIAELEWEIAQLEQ
- Experiment Description: two-hybrid library CCNG1;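 further: natural log of median RNA to DNA barcode read ratio; higher means stronger binding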
Response field label takes Satisfied when interaction score is strictly below -0.7 and Not satisfied in all other cases.

// below: answered binders
{"columns": ["Binder", "Class Label"],
 "data": [
  ["DKIAQLKQKNAELKQEIAELEWKNAQLKQ [O16-bA]", "Satisfied"],
  ["DKIAQLKQEIAELEQENAELEWENAQLEQ [O11-bA]", "Not satisfied"],
  ["DKNAQLKQENAELEQEIAELEWEIAQLEQ [O1-bA]", "Satisfied"]
]}

Request: Regarding DKIAQLKQKNAELKQKIAELKWENAQLEQ [O7-bA] , kindly confirm whether its interaction score is beneath -0.7.
Response: Satisfied

Request: Regarding DEIAQLEQENAELEQEIAELEWKNAQLKQ [O8-bA] , kindly confirm whether its interaction score is beneath -0.7.
Response: Not satisfied
